So I've got a bunch of binders here, and I need their OD450 values.
- Target entity: T1, human LAG-3 protein with hFc tag (hLAG-3-hFc protein) (human, UniProt P18627 23-450)
- T1 construct: also called immunogen 1; LAG-3 extracellular domain protein; not shown: human IgG Fc fragment (hFc) of the pCpC vector
- T1 sequence: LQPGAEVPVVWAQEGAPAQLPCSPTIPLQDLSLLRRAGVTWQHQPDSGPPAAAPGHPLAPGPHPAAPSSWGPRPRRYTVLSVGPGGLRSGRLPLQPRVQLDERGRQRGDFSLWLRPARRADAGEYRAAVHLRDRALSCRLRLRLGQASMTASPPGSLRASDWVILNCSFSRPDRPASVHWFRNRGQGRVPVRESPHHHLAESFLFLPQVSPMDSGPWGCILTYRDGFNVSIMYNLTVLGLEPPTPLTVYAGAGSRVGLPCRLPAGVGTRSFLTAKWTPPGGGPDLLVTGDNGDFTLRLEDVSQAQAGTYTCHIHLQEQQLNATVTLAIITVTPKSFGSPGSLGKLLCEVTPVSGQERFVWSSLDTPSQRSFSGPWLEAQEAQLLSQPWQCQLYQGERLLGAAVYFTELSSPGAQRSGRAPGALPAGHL
- Measurement description: ELISA, hLAG-3-hFc coated; 0.0667 nM
Give bare numbers, in OD450.

- Binder: "409B11E12 (LAG-3 mouse-human chimeric antibody) (antibody, V domains shown) VH: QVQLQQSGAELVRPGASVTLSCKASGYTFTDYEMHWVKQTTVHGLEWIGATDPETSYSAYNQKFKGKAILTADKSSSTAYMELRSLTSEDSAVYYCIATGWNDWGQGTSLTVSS VL: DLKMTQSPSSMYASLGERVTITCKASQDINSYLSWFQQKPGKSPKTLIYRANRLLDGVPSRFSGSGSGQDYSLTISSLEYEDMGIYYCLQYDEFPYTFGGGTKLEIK"
  Reading: 2.16
- Binder: "405B8H3 (LAG-3 mouse-human chimeric antibody) (antibody, V domains shown, also called mouse-human chimeric antibody 405B8H3) VH: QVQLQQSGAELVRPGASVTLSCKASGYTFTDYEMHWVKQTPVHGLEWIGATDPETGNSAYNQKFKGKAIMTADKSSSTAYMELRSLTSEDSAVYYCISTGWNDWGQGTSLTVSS VL: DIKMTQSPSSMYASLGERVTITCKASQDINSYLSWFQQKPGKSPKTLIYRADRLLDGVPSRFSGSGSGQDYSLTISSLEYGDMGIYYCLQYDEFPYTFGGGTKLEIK"
  Reading: 2.25
- Binder: "409D4E10 (LAG-3 mouse-human chimeric antibody) (antibody, V domains shown) VH: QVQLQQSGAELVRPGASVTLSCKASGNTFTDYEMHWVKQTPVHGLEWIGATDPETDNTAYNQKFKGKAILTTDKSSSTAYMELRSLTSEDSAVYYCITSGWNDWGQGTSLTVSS VL: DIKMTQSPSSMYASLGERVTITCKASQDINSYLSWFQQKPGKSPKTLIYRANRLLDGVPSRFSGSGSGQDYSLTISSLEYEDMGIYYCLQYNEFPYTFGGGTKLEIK"
  Reading: 3.1

Shift focus to the following entry.
[Q] # OD450 lookup, item 556F6B8 (LAG-3 mouse-human chimeric antibody) (antibody, V domains shown, also called 556F8B8) VH: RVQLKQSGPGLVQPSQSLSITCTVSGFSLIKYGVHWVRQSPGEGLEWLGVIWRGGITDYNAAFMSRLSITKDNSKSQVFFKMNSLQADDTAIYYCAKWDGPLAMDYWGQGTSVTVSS VL: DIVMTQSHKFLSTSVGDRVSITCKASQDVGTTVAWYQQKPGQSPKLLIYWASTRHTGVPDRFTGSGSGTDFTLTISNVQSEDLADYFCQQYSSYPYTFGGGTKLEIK
[A] 1.94
